System: LOX IMVI melanoma
protocol_description: NCI tumour cell line growth inhibition, 48 h
Record form. Attribute: TGI. Fill in for each entry.
Give bare numbers, in µM.

Oc1ccc(Br)cc1Sc1cc(Br)ccc1O = 17.6

Read the next record carefully.
Per the records, this molecule ( COC(=O)CCC/C=C\C[C@H]1C=CC(=O)/C1=C/C[C@@H](O)CCc1cccc(C(F)(F)F)c1 ) has TGI equal to 2.24

###

Tested on: HCC-2998 colon
protocol_description: NCI tumour cell line growth inhibition, 48 h; in the data active means GI50 below about 0.43 µM; inactive means the rest
Pick from active, inactive when you respond.

The examples below pair each entry with its known result.
COc1cc([C@H](C)c2ccc3ccccc3c2)cc(OC)c1OC = inactive
COc1cc(OC2OC(C)C(O)C(O)C2O)cc2oc(-c3ccc(O)cc3)c(CC=C(C)C)c(=O)c12 (centres undefined) = inactive
COc1cc(-c2cnn(C)c2)ccc1Nc1ncc2ccnc(N[C@@H](C)C(C)(C)C)c2n1 = inactive
COc1cc(-c2nc3ccc(C)cc3[nH]2)ccc1OCC(=O)N=Nc1c(O)[nH]c2ccccc12 = inactive
CCOC(=O)[C@@H](C)C[C@H](Cc1ccccc1)NC(=O)c1csc([C@@H](C[C@H](C(C)C)N(C)C(=O)[C@@H](NC(=O)[C@H]2C[C@H](O[Si](C)(C)C(C)(C)C)CCN2C)C(C)C)OC(C)=O)n1 = active

### Prompt I'd appreciate the recorded outcome for COc1cc2c(cc1C)NC(=O)/C2=C\c1cc(OC)c(OC)c(OC)c1 from this test.
### Response inactive

### Prompt I'd appreciate the recorded outcome for COc1ccc2c(c1)sc1nc(-c3ccccc3)c(-c3ccsc3)n12 from this test.
### Response inactive

### Prompt I'd appreciate the recorded outcome for CC1=CSC2=NC(c3ccc(Cl)c(Cl)c3)=CC(c3ccc(Cl)cc3)N12 (centres undefined) from this test.
### Response inactive

### Prompt I'd appreciate the recorded outcome for COc1cc2nc(-c3ccc(C(F)(F)F)cc3)cc(OCCCN3CCOCC3)c2cc1OC from this test.
### Response inactive

###

Test system: M14 melanoma
protocol_description: NCI tumour cell line growth inhibition, 48 h
readout_label: TGI (µM)
Numbers only, in µM.

Example molecules with recorded TGI:
O=C1C=CC(=O)c2ncccc21 = 13.1
COc1cc2c(cc1OCc1ccccc1)N=C[C@@H]1C/C(=C/C(=O)NCCCN3C(=O)c4cccc5cccc(c45)C3=O)CN1C2=O = 6.92

Read the next record carefully.
Per the records, this molecule ( COc1cc(OC2OC(C)C(O)C(O)C2O)cc2oc(-c3ccc(O)cc3)c(CC=C(C)C)c(=O)c12 (stereo not given) ) has TGI equal to 39.8

###

Record form. Attribute: TGI. Fill in for each entry.
Tested on: SK-MEL-28 melanoma
protocol_description: NCI tumour cell line growth inhibition, 48 h

Example molecules with recorded TGI:
C=CCCCCCCCCCCCC1CCC(CC)N1 (stereo unspecified) = 29.6 µM
CCOC(=O)[C@@H](C)C[C@H](Cc1ccccc1)NC(=O)c1csc([C@@H](C[C@H](C(C)C)N(C)C(=O)[C@@H](NC(=O)[C@H]2C[C@H](O[Si](C)(C)C(C)(C)C)CCN2C)C(C)C)OC(C)=O)n1 = > 8.33 µM
CCOP(=O)(OCC)C(Nc1ccc(F)cc1)c1cccc([N+](=O)[O-])c1 (stereo unspecified) = > 100 µM
COc1ccc(CNc2nc(NCc3ccc(OC)cc3)nc(N3CCOCC3)n2)cc1 = > 100 µM
NC(=O)COc1ccccc1 = > 100 µM

The following molecules each have a reported value; give each one's TGI.
1. c1cnc2c(c1)-n1cccc1C1(CCSCC1)NN2
2. CSC(=NC1=NC(C(F)(F)F)(C(F)(F)F)N=C(c2ccccc2)O1)SC
3. N#CC1=CNc2sccc2S1(=O)=O
4. NC(N)=N/N=C(/c1nc2ccc([N+](=O)[O-])cc2[nH]c1=O)C(O)c1ccco1 (stereo unspecified)
5. CC1(C)C2CC(c3ccncc3)ON2C(C)(C)N1O (stereo unspecified)

### Response
["> 100 µM", "> 100 µM", "> 100 µM", "> 100 µM", "> 100 µM"]

Per the records, this molecule ( CC1(C)[C@@H]2C[C@H]1c1cnc(-c3ccccn3)cc1C2[C@@H]1c2cc(-c3ccccn3)ncc2[C@@H]2C[C@H]1C2(C)C (stereo partly specified) ) has TGI equal to > 100 µM

###

System: SK-MEL-2 melanoma
protocol_description: NCI tumour cell line growth inhibition, 48 h
readout_label: TGI

CSc1ncc2c(n1)-c1ccccc1OC2N1CCCC1 (centres undefined) = > 100 µM
CCOC(=O)C(O)(NC(C)=O)C(F)(F)F (centres undefined) = > 100 µM
O=C(/C=C/c1ccc([N+](=O)[O-])cc1)c1nc2ccccc2[nH]1 = > 100 µM

Read the next record carefully.
Per the records, this compound ( Nc1c(C(=O)c2ccccc2)sc2nc(-c3cccs3)ccc12 ) has TGI equal to 17.8 µM

###

Test system: NCI-H460 lung
protocol_description: NCI tumour cell line growth inhibition, 48 h
Record form. Attribute: TGI. Fill in for each entry.

Example molecules with recorded TGI:
O=C1NC(N/N=C\c2ccccc2)=N/C1=C/c1ccc(Cl)cc1 = 53.5 µM
COc1ccc(-c2c(C#N)c(-c3ccccc3)n(NS(=O)(=O)c3ccccc3)c(=O)c2C#N)cc1 = > 100 µM

The following molecules each have a reported value; give each one's TGI.
1. CCCCN(c1ccccc1)c1ncnc2c1cnn2C
2. CC#CC(O)(C(=O)OC1CCCN(C)C1)C1=CC=CCC1 (stereo unspecified)
3. Nc1nc(-c2cccc([N+](=O)[O-])c2)c(Br)c(=O)[nH]1
4. CC(=O)NC1=N/C(=C/c2cc([N+](=O)[O-])ccc2O)CN1C
5. CC1(C)C2CC(c3ccncc3)ON2C(C)(C)N1O (stereo unspecified)
6. CCN(CC)CCn1c2c3ccccc3ccc2c2oc(=O)c3ccccc3c21

### Response
> 100 µM
> 100 µM
> 100 µM
> 100 µM
> 100 µM
> 100 µM

###

Record form. Attribute: TGI. Fill in for each entry.
Tested on: OVCAR-3 ovarian
protocol_description: NCI tumour cell line growth inhibition, 48 h
Numbers only, in µM.

CN1CCN(CCSC2Cc3cc(Cl)ccc3Sc3ccccc32)CC1 (stereo not given) = 16.5

Per the records, this compound ( O=C1c2cc(Br)ccc2-c2c1c1ccc([N+](=O)[O-])cc1c(=O)n2CCCCl ) has TGI equal to 14.5

###

System: KM12 colon
protocol_description: NCI tumour cell line growth inhibition, 48 h
Record form. Attribute: TGI. Fill in for each entry.

Example molecules with recorded TGI:
CC1(C)[C@@H]2C[C@H]1c1cnc(-c3ccccn3)cc1C2[C@@H]1c2cc(-c3ccccn3)ncc2[C@@H]2C[C@H]1C2(C)C (some centres undefined) = > 100 µM
CCOC(=O)C(O)(NC(C)=O)C(F)(F)F (centres undefined) = > 100 µM
CCCCNc1nc(NC(C)(C)C)nc(NC(C)(C)C)n1 = > 100 µM
COc1cc2c(cc1OCc1ccccc1)N=C[C@@H]1C/C(=C/C(=O)NCCCN3C(=O)c4cccc5cccc(c45)C3=O)CN1C2=O = 6.59 µM
CC(=O)Oc1cc(C)ccc1[C@]1(C)CC[C@H](C)/C1=C\Br = 12 µM

The following molecules each have a reported value; give each one's TGI.
1. O=C1[C@@H]2Cc3c([nH]c4ccccc34)C(C3CCCCC3)N2C(=O)[C@@H]2CCCN12 (some centres undefined)
2. Cc1[nH]c(-c2ccccc2)c(-c2ccc(Cl)cc2)c1C(=O)ONC(=O)c1ccccc1

### Response
58.4 µM
> 48.3 µM

The following molecules each have a reported value; give each one's TGI.
1. O=C(O)C1CCc2ccc3ccccc3c2C1c1cccc2ccccc12 (centres undefined)
2. CN1CCN(Cc2ccc(NC(=O)c3cncc(C#Cc4cnc(N)c5ccc(F)cc45)c3)cc2C(F)(F)F)CC1

### Response
1. 37.8 µM
2. 4.63 µM

###

Test system: DLD-1 colon
protocol_description: NCI tumour cell line growth inhibition, 48 h
Record form. Attribute: TGI. Fill in for each entry.

C[CH2][Sn]1([CH2]C)[O]C(=O)[O][Sn]([CH2]C)([CH2]C)[O]1 = > 57.8 µM
Cc1cc2nc3c(=O)n(C)c(=O)nc-3n(-c3ccc(Cl)cc3)c2cc1C = 42.1 µM
CCCC(=O)c1c(NOC2OC(COC(C)=O)C(OC(C)=O)C(OC(C)=O)C2OC(C)=O)nc(OC)n(C)c1=O (stereo unspecified) = > 100 µM
COc1ccc(-c2c(C3=NCCN3)nnn2-c2ccccc2)cc1 = > 100 µM

The following compounds each have a reported value; give each one's TGI.
1. CCN(CC)CCCCC1CCN(CC(=O)N2CC(C)C(=O)Nc3ccccc32)CC1 (stereo unspecified)
2. CCC(=O)c1cn(C)c(=O)c2ccccc12
3. CCCCC#COP(=O)(OCC)OCC
4. COc1cc(-c2cc(=O)c3cc4c(cc3[nH]2)OCO4)cc(OC)c1OC
5. NC(=O)COc1ccccc1
6. O=C(C(O)c1cn(Cc2ccccc2)c2ccccc12)N1CCCCC1 (stereo unspecified)
7. CCN(CC)CCC1CC/C(=C\c2ccc(OC)cc2)C1=O (stereo unspecified)

### Response
1: > 100 µM; 2: > 100 µM; 3: > 100 µM; 4: > 100 µM; 5: > 100 µM; 6: > 100 µM; 7: > 100 µM
